biological target: human EGF-R (Homo sapiens); assay: EGF Receptor ELISA (EGF receptor kinase activity in cells engineered to express human EGF-R); conditions: NIH 3T3/C7 cell line, EGF stimulated
Sequence (P00533 25-1210): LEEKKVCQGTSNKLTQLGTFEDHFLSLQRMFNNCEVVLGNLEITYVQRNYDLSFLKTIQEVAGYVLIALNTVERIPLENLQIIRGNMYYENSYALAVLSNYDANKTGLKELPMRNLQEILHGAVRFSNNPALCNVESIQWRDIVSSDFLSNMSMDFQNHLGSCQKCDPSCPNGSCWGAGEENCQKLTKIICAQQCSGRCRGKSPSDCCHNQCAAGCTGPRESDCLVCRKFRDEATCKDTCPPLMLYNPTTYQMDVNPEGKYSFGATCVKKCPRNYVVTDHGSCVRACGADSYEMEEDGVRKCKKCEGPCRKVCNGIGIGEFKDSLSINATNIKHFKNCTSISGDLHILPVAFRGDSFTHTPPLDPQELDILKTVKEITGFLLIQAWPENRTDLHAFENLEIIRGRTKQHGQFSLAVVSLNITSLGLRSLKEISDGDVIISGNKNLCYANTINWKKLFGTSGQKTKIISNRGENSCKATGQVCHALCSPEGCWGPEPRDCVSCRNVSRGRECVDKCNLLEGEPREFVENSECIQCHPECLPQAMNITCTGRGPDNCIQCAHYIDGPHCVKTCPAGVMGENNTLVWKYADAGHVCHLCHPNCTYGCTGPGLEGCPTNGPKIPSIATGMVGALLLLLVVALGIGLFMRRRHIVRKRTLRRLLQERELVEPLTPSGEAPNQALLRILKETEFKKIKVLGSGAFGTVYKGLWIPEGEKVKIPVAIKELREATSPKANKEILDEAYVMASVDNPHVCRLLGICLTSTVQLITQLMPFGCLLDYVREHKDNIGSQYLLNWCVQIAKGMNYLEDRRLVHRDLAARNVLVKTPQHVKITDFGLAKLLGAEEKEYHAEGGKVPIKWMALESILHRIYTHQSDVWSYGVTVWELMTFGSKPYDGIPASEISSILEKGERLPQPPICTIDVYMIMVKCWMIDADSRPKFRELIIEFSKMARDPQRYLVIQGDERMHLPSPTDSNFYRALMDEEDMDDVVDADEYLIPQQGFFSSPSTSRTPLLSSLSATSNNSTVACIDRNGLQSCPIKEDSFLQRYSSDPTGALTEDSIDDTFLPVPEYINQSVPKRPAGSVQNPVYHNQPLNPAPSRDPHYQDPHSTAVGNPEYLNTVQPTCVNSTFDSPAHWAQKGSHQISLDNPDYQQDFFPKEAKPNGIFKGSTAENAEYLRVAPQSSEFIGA
pIC50: −log10 of the molar value.
PARAMETER: pIC50

Worked cases, answers included:
# ENTRY SMILES, pIC50
records = [
    ("Cc1[nH]c(C=C2C(=O)Nc3ncccc32)c(C)c1CCC(=O)O", "< 4.30"),
    ("O=C1Nc2ncccc2C1=Cc1cnc[nH]1", "< 4.30"),
    ("Cc1c(CCC(=O)O)c[nH]c1C=C1C(=O)Nc2ncccc21", "< 4.60"),
]

In the following, a different compound is considered.
Query :: What pIC50 value was documented for this compound, Cc1cc(C)c(C=C2C(=O)Nc3ncccc32)[nH]1 ?
Result :: < 4.00

###

molecular target: UniProt P35918; experiment: FLK-1 ELISA (kinase activity of the FLK-1 receptor in cells engineered to express Flk-1); settings: NIH3T3 C7#3 cells (FLK-1 expressing), VEGF stimulated
Sequence (P35918 20-1345): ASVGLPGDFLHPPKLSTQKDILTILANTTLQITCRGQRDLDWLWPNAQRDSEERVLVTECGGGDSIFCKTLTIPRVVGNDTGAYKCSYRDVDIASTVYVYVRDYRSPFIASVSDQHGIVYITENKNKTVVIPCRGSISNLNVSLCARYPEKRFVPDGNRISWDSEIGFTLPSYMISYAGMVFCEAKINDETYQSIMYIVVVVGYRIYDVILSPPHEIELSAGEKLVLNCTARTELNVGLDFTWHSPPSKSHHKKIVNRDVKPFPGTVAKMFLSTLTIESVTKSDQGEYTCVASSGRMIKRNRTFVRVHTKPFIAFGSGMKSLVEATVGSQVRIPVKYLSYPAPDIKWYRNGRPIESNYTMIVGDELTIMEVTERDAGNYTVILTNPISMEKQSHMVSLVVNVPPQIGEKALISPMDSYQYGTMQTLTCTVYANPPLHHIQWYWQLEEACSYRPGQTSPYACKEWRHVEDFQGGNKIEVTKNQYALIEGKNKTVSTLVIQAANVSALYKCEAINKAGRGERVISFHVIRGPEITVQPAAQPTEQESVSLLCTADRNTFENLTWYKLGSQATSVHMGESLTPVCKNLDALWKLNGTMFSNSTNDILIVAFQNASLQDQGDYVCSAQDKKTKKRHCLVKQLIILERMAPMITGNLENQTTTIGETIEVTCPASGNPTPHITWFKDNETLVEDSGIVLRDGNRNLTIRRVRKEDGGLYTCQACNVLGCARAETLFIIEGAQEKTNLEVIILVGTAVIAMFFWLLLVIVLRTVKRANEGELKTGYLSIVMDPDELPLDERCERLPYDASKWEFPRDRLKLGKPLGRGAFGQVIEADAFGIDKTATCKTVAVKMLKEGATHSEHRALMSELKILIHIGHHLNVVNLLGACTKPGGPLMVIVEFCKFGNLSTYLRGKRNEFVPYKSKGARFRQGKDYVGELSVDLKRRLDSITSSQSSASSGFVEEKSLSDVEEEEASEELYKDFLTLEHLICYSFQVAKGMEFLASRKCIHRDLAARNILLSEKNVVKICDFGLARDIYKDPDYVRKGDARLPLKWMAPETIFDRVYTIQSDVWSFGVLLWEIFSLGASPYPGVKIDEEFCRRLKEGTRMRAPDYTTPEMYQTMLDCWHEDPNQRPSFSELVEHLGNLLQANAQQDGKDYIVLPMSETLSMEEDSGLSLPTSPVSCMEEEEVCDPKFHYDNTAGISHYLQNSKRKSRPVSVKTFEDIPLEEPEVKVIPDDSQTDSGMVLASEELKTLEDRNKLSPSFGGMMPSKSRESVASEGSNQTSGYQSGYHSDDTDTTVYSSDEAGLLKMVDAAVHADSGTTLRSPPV
PARAMETER: pIC50
Answers are plain numbers, as −log10 of the molar value.

Provide reported pIC50 for each item, in the same order as listed.
1. Cc1[nH]c(C=C2C(=O)Nc3ncccc32)c(C)c1CCC(=O)O
2. Cc1cc(C)c(C=C2C(=O)Nc3ncccc32)[nH]1
3. Cc1c(CCC(=O)O)c[nH]c1C=C1C(=O)Nc2ncccc21
4. O=C1Nc2ncccc2C1=Cc1cnc[nH]1

Result ::
6.82
5.69
6.02
4.75
